Tested on: LO68 mesothelioma cells
Experiment: Synergy of MBZ with chemotherapeutic agents (Chou-Talalay CI, Cell Titer Glo)
Type: cell-based
Conditions: in combination with MBZ, 72 hour incubation
Field: CI range for the concentration pairings. Provide a value for each of the molecules that follow.

Answered examples (3):
CCC1=C[C@@H]2CN(C1)Cc1c([nH]c3ccccc13)[C@@](C(=O)OC)(c1cc3c(cc1OC)N(C)[C@H]1[C@@](O)(C(=O)OC)[C@H](OC(C)=O)[C@]4(CC)C=CCN5CC[C@]31[C@@H]54)C2 : 0.445-0.872
COc1cccc2c1C(=O)c1c(O)c3c(c(O)c1C2=O)C[C@@](O)(C(=O)CO)C[C@@H]3O[C@H]1C[C@H](N)[C@H](O)[C@H](C)O1 : 0.433-0.875
N.N.O=C([O-])C1(C(=O)[O-])CCC1.[Pt+2] : 0.574-0.865

# evaluate next
Give the reported value of CI range for the concentration pairings for this record: `Nc1ccn([C@@H]2O[C@H](CO)[C@@H](O)C2(F)F)c(=O)n1`
0.525-0.845
